- MEASUREMENT PROTOCOL: Solubility of sodium salt in various aqueous media
- Format: physicochemical
- CONDITIONS: saline, saline or isotonic
OBSERVABLE: solubility

(Q) Suppose we examine the compound CC(C)(O/N=C(\C(=O)N[C@@H]1C(=O)N2C(C(=O)[O-])=C(C[N+]3(CCNC(=O)c4ccc(O)c(O)c4Cl)CCCC3)CS[C@H]12)c1csc(N)n1)C(=O)O ; what solubility value has been reported?
(A) ≥ 100 mg/mL

###

- MEASUREMENT PROTOCOL: Solubility of sodium salt in various aqueous media
- Format: physicochemical
- CONDITIONS: dextrose solution, saline or isotonic
OBSERVABLE: solubility

(Q) Suppose we examine the molecule CC(C)(O/N=C(\C(=O)N[C@@H]1C(=O)N2C(C(=O)[O-])=C(C[N+]3(CCNC(=O)c4ccc(O)c(O)c4Cl)CCCC3)CS[C@H]12)c1csc(N)n1)C(=O)O [compound 9] ; what solubility value has been reported?
(A) ≥ 100 mg/mL

###

- MEASUREMENT PROTOCOL: Solubility of sodium salt in various aqueous media
- Type: physicochemical
- CONDITIONS: water for injection, water
OBSERVABLE: solubility

(Q) Suppose we examine the molecule CC(C)(O/N=C(\C(=O)N[C@@H]1C(=O)N2C(C(=O)[O-])=C(C[N+]3(CCNC(=O)c4ccc(O)c(O)c4Cl)CCCC3)CS[C@H]12)c1csc(N)n1)C(=O)O [compound 9] ; what solubility value has been reported?
(A) ≥ 100 mg/mL
